Measured Ki accompanies every entry in the list below.
# TARGET UNDER TEST: Human immunodeficiency virus type 1 protease (Human immunodeficiency virus 1, UniProt Q72874)
QUANTITY KIND: Ki (nM)

COMPOUND	READOUT NUMBER
CCOC(=O)CNC(=O)Nc1cccc(C[C@H]2C[C@H](Cc3ccccc3)N(C[C@@H](O)C[C@@H](Cc3ccccc3)C(=O)N[C@@H]3c4ccccc4C[C@H]3O)C2=O)c1	0.1
NC(=O)Cc1cccc(C[C@H]2C[C@H](Cc3ccccc3)N(C[C@@H](O)C[C@@H](Cc3ccccc3)C(=O)NC3c4ccccc4C[C@H]3O)C2=O)c1 (stereo partly drawn)	0.09
Nc1ccc(CC2C[C@H](Cc3ccccc3)N(C[C@@H](O)C[C@@H](Cc3ccccc3)C(=O)NC3c4ccccc4C[C@H]3O)C2=O)cc1 (stereo partly drawn)	2.3
C=CC[C@H]1C[C@H](Cc2ccccc2)N(C[C@@H](O)C[C@@H](Cc2ccccc2)C(=O)NC2c3ccccc3C[C@H]2O)C1=O (stereo partly drawn)	0.45
CCNC(=O)Nc1cccc(C[C@H]2C[C@H](Cc3ccccc3)N(C[C@@H](O)C[C@@H](Cc3ccccc3)C(=O)NC3c4ccccc4C[C@H]3O)C2=O)c1 (stereo partly drawn)	0.2
O=C(NC1c2ccccc2C[C@H]1O)[C@H](Cc1ccccc1)C[C@H](O)CN1C(=O)C(Cc2cccc(O)c2)C[C@@H]1Cc1ccccc1 (single isomer, unassigned; diastereomer 1)	0.05
N#Cc1cccc(CC2C[C@H](Cc3ccccc3)N(C[C@@H](O)C[C@@H](Cc3ccccc3)C(=O)NC3c4ccccc4C[C@H]3O)C2=O)c1 (single isomer, unassigned; diastereomer 1)	0.05
N#CCOc1cccc(C[C@H]2C[C@H](Cc3ccccc3)N(C[C@@H](O)C[C@@H](Cc3ccccc3)C(=O)NC3c4ccccc4C[C@H]3O)C2=O)c1 (stereo partly drawn)	0.08
O=C(NCCOCCO)c1cccc(C[C@H]2C[C@H](Cc3ccccc3)N(C[C@@H](O)C[C@@H](Cc3ccccc3)C(=O)N[C@@H]3c4ccccc4C[C@H]3O)C2=O)c1	0.24
Nc1cccc(CC2C[C@H](Cc3ccccc3)N(C[C@@H](O)C[C@@H](Cc3ccccc3)C(=O)NC3c4ccccc4C[C@H]3O)C2=O)c1 (single isomer, unassigned; diastereomer 1)	0.1
O=C(NC1c2ccccc2C[C@H]1O)[C@H](Cc1ccccc1)C[C@H](O)CN1C(=O)C(Cc2cccnc2)C[C@@H]1Cc1ccccc1 (single isomer, unassigned; diastereomer 2)	14
NC(=O)c1cccc(C[C@H]2C[C@H](Cc3ccccc3)N(C[C@@H](O)C[C@@H](Cc3ccccc3)C(=O)N[C@@H]3c4ccccc4C[C@H]3O)C2=O)c1	0.1
COC(=O)c1cccc(CC2C[C@H](Cc3ccccc3)N(C[C@@H](O)C[C@@H](Cc3ccccc3)C(=O)NC3c4ccccc4C[C@H]3O)C2=O)c1 (single isomer, unassigned; diastereomer 1)	0.42
O=C(NC1c2ccccc2C[C@H]1O)[C@H](Cc1ccccc1)C[C@H](O)CN1C(=O)C(Cc2cccnc2)C[C@@H]1Cc1ccccc1 (stereo in doubt)	0.17
O=C(NC1c2ccccc2C[C@H]1O)[C@H](Cc1ccccc1)C[C@H](O)CN1C(=O)C(Cc2ccncc2)C[C@@H]1Cc1ccccc1 (stereo partly drawn)	0.31
N#Cc1ccc(CC2C[C@H](Cc3ccccc3)N(C[C@@H](O)C[C@@H](Cc3ccccc3)C(=O)NC3c4ccccc4C[C@H]3O)C2=O)cc1 (stereo partly drawn)	0.34
NC(=O)c1cccc(C[C@H]2C[C@H](Cc3ccccc3)N(C[C@@H](O)C[C@@H](Cc3ccc(OCCO)cc3)C(=O)N[C@@H]3c4ccccc4C[C@H]3O)C2=O)c1	0.05
O=C(NCCN1CCOCC1)c1cccc(C[C@H]2C[C@H](Cc3ccccc3)N(C[C@@H](O)C[C@@H](Cc3ccccc3)C(=O)N[C@@H]3c4ccccc4C[C@H]3O)C2=O)c1	0.15
